Entries and their IC50 values follow.
Test system: MDA-MB-436 cells
Test Name: MDA-MB-436 cell activity test (CellTiter-Glo, 7 days)
Type: cell-based
Experimental Setup: Homo sapiens, MDA-MB-436, 168 h; 7 days incubation

# Compound, IC50 (nM)
measured = [
    ("Cc1nc2ccc(CN3CCN(c4ccc(C(=O)N[C@H]5C[C@H]5F)nc4F)CC3)c(F)c2[nH]c1=O [Compound 5]", 28),
    ("O=C(NC1CC1)c1ccc(N2CCN(Cc3ccc4nc(C(F)F)c(=O)[nH]c4c3F)CC2)c(F)n1 [Compound 12]", 10.2),
    ("Cn1cc(C(=O)Nc2ccc(N3CCN(Cc4ccc5nc(C(F)F)c(=O)[nH]c5c4F)CC3)c(F)n2)cn1 [Compound 14]", 24.3),
    ("Cc1nc2ccc(CN3CC=C(c4ccc(C(=O)Nc5cnn(C)c5)nc4F)CC3)c(F)c2[nH]c1=O [Compound 9]", 1.5),
]
